# measurement.description: Selectivity index, ratio of LD50 for human WI-38 cells to LD50 for human MDA-MB-468 cells assessed as inhibition of cell proliferation by MTT assay
# Type: toxicity
# conditions.used: WI-38 cells and MDA-MB-468 cells, read-out: Selectivity Index
measured.metric: selectivity ratio

INSERT INTO results (chem_smiles, assay_value) VALUES
  ('O=C(c1ccc(Br)cc1)[C@@H]1Cc2c(ccc3ccccc23)O1', 3.11),
  ('O=C(c1ccccc1)[C@H]1Oc2ccc3cc(Br)ccc3c2[C@@H]1c1ccccc1', 2.89),
  ('N#Cc1ccc([C@H]2c3c(ccc4ccccc34)O[C@@H]2C(=O)c2ccccc2)cc1', 1.35);

* * *

# measurement.description: Selectivity index, ratio of LD50 for human WI-38 cells to LD50 for human MCF7 cells assessed as inhibition of cell proliferation by MTT assay
# Assay type: toxicity
# conditions.used: WI-38 cells and MCF7 cells, read-out: Selectivity Index
measured.metric: selectivity ratio

INSERT INTO measurements (chem_smiles, assay_value) VALUES
  ('N#Cc1ccc(C(=O)[C@H]2Oc3ccc4ccccc4c3[C@@H]2c2ccc3ccccc3c2)cc1', 1.54),
  ('O=C(c1ccccc1)[C@H]1Oc2ccc3ccccc3c2[C@@H]1c1ccc(Br)cc1', 1.37),
  ('C[C@H]1c2c(ccc3ccccc23)O[C@@H]1C(=O)c1ccccc1', 1.68),
  ('O=C(c1ccccc1)[C@H]1Oc2ccc3ccccc3c2[C@@H]1c1ccc(O)cc1', 1.49),
  ('O=C(c1ccccc1)[C@@H]1Cc2c(ccc3cc(Br)ccc23)O1', 1.35),
  ('CC(=O)[C@@H]1Cc2c(ccc3ccccc23)O1', 1.8),
  ('O=C(c1ccc(F)cc1)[C@@H]1Cc2c(ccc3ccccc23)O1', 1.86),
  ('O=C(c1ccccc1)[C@H]1Oc2ccc3ccccc3c2[C@@H]1c1ccc2ccccc2c1', 2.1),
  ('CCC[C@H]1c2c(ccc3ccccc23)O[C@@H]1C(=O)c1ccccc1', 1.07),
  ('O=C(c1ccc(Br)cc1)[C@@H]1Cc2c(ccc3ccccc23)O1', 2.66);

* * *

# Test system: MDA-MB-468
# measurement.description: Antiproliferative activity against human MDA-MB-468 cells assessed as inhibition of cell proliferation by MTT assay
# Assay type: functional
# conditions.used: read-out: LD50 (the source's name)
CC50 vs 50 µM: less than gives Y; not less than gives N.

INSERT INTO assay_data (chem_smiles, study_target, class_name) VALUES
  ('CC(=O)[C@@H]1Cc2c(ccc3ccccc23)O1', 'MDA-MB-468', 'Y'),
  ('C[C@H]1c2c(ccc3ccccc23)O[C@@H]1C(=O)c1ccccc1', 'MDA-MB-468', 'Y'),
  ('O=C(c1ccccc1)[C@H]1Oc2ccc3ccccc3c2[C@@H]1c1ccc(Cl)cc1', 'MDA-MB-468', 'N'),
  ('O=C(c1ccccc1)[C@H]1Oc2ccc3ccccc3c2[C@@H]1C1CCCCC1', 'MDA-MB-468', 'Y'),
  ('O=C(c1ccc(F)cc1)[C@@H]1Cc2c(ccc3ccccc23)O1', 'MDA-MB-468', 'Y'),
  ('O=C(c1ccccc1)[C@H]1Oc2ccc3ccccc3c2[C@@H]1c1ccccc1', 'MDA-MB-468', 'N'),
  ('N#Cc1ccc([C@H]2c3c(ccc4ccccc34)O[C@@H]2C(=O)c2ccccc2)cc1', 'MDA-MB-468', 'N'),
  ('O=C(c1ccccc1)[C@H]1Oc2ccc3cc(Br)ccc3c2[C@@H]1c1ccccc1', 'MDA-MB-468', 'Y'),
  ('O=C(c1ccccc1)[C@H]1Oc2ccc3ccccc3c2[C@@H]1c1ccc(Br)cc1', 'MDA-MB-468', 'N'),
  ('Cc1ccc(C(=O)[C@@H]2Cc3c(ccc4ccccc34)O2)cc1', 'MDA-MB-468', 'Y');
